Each entry below carries its reported BTK Remaining (% relative to vehicle).
- target.entity: BTK (Homo sapiens, UniProt Q06187)
- Sequence (Q06187 whole entry): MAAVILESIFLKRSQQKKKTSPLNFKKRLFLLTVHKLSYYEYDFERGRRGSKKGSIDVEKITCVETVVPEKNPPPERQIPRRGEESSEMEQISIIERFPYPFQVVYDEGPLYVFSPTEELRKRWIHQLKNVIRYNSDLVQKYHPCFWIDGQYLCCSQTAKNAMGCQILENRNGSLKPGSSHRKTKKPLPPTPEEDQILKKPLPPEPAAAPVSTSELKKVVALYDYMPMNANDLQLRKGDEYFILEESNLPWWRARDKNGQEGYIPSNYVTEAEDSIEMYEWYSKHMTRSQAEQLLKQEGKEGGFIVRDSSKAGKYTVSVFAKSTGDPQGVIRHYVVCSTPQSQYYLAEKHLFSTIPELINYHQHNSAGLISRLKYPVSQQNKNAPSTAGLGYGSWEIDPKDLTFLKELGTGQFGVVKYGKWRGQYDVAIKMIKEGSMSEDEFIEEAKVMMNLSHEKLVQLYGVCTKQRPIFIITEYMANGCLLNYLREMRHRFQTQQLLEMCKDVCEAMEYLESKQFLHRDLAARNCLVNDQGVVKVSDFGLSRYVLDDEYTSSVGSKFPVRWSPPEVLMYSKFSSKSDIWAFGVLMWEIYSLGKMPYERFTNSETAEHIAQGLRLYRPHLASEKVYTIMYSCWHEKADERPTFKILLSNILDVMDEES
- procedure.summary: BTK remaining in TMD8 WT mouse xenograft study
- Format: in vivo
- Set-up: from tissue; host or cells: TMD8 xenograft in CB.17 SCID mice
- setup.conditions: PO, 30 mg/kg, QD, 21 days of dosing
Kindly answer with a numeric value in %, unit omitted.

Below, each entry is followed by its recorded BTK Remaining (% relative to vehicle) result.
| compound | display.unit | numeric.readout |
| --- | --- | --- |
| CN1CCN([C@@H]2CCCN(c3cnc(C(N)=O)c(Nc4ccc(C5CCN(C6CN(c7ccc8c(c7)C(=O)N(C7CCC(=O)NC7=O)C8=O)C6)CC5)cc4)n3)C2)C1=O (stereo partly shown) | % | 19 |
| CN1CCN([C@@H]2CCCN(c3cnc(C(N)=O)c(Nc4ccc(N5CCC6(CC5)CCN(c5ccc7c(c5)C(=O)N(C5CCC(=O)NC5=O)C7=O)CC6)cc4)n3)C2)C1=O (stereo partly shown) | % | 27 |
| CN1CCN([C@@H]2CCCN(c3cnc(C(N)=O)c(Nc4ccc(C5CN(C6CCN(c7ccc8c(c7)C(=O)N(C7CCC(=O)NC7=O)C8=O)CC6)C5)cc4)n3)C2)C1=O (stereo partly shown) | % | 16 |

Please examine the following record next.
Respond only with BTK Remaining (% relative to vehicle) recorded for CN1CCN([C@H]2CCCN(c3cnc(C(N)=O)c(Nc4cnn(C5CCN(CC6CCN(c7ccc8c(c7)C(=O)N(C7CCC(=O)NC7=O)C8=O)CC6)CC5)c4)n3)C2)C1=O (stereo partly shown)
22
